Target: ITK (Homo sapiens)
Sequence (Q08881 1-620): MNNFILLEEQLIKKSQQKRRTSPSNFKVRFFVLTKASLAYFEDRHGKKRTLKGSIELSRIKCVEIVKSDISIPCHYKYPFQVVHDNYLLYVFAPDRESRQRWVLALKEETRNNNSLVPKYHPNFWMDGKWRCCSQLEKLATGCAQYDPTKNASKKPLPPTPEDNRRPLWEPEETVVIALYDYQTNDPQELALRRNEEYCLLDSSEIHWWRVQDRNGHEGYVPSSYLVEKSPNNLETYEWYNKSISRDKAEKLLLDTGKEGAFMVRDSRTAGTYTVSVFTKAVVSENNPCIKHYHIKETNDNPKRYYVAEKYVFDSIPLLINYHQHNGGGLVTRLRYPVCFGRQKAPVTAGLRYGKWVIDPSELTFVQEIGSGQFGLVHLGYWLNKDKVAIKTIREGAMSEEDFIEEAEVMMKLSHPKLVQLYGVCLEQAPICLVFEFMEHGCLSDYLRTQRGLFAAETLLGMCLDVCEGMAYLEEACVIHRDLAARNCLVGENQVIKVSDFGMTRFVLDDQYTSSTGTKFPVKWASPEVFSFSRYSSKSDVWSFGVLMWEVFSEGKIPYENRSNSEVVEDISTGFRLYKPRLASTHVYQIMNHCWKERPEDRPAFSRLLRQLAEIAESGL
Where a name gives a salt, the structure may show the parent alone.
quantity.name: IC50

compound	IC50
C=CC(=O)N1CC(Nc2cc(-c3ccnc(C(=O)Nc4ccc(C(C)C)c(C)c4)c3)c[nH]c2=O)C1 [Example 16, hydrochloride]	≤ 1000 nM

Param item: C/C=C/C(=O)N1CC(Nc2cc(-c3ccncc3)c[nH]c2=O)C1 ; param system: ITK (Homo sapiens); output IC50: > 1000 nM

Param item: C=CC(=O)N1CCC[C@@H](Nc2cc(-c3ccncc3)c[nH]c2=O)C1 ; param system: ITK (Homo sapiens); output IC50: > 1000 nM
